target-or-system: UniProt:Q6GQQ9
Sequence (Q6GQQ9 whole entry): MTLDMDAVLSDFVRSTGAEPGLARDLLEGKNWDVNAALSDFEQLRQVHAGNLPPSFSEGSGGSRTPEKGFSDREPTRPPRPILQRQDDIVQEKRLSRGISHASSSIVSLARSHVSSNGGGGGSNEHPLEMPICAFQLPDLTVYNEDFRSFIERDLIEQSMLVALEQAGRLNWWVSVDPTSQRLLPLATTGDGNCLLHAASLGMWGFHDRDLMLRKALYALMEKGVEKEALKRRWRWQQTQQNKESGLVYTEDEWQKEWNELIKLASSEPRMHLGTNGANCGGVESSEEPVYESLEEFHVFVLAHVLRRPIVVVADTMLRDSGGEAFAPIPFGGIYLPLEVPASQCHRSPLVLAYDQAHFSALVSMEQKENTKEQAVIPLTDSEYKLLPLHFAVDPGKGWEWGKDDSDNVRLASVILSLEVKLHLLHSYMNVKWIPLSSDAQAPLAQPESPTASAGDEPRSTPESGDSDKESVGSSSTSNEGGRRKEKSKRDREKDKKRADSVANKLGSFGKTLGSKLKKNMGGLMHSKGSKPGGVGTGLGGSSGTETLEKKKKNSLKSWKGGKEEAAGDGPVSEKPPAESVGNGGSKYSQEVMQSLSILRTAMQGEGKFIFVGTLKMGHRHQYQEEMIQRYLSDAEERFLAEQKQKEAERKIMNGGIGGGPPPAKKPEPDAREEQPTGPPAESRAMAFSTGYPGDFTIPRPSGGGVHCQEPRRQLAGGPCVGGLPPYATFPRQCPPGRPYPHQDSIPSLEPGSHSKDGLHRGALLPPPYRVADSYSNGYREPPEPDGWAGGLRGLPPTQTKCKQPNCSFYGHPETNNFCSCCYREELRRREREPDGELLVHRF
assay-explanation: Cezanne 1 biochemical IC50 assay (fluorescence polarisation, TAMRA labelled peptide linked to ubiquitin)
measurement-context: Cezanne 1 biochemical IC50 assay; 30 min pre-incubation, read after 2 hr at room temperature; read-out: IC50 range
measured-endpoint: IC50

[ask] Given the molecule "N#CN1CC[C@]2(CCNC2=O)C1" , what is its reported IC50?
[reply] 1000 to 10000 nM

[ask] Likewise for N#CN1CCC2(C1)OCc1ccccc1NC2=O (stereo not shown) ?
[reply] 1000 to 10000 nM

[ask] Likewise for "N#CN1CC[C@@]2(C1)Nc1ncc(-c3cccc(F)c3)cc1NC2=O" ?
[reply] 100 to 1000 nM

[ask] Likewise for Cc1n[nH]cc1-c1ccc2c(c1)CC1(CCN(C#N)C1)C(=O)N2 (stereo not shown) ?
[reply] 100 to 1000 nM

[ask] Likewise for Cc1n[nH]cc1-c1ccc2c(c1)NC(=O)C1(CCN(C#N)C1)C2 (stereo not shown) ?
[reply] 1000 to 10000 nM

[ask] Likewise for CN(C)C(=O)c1ccc(-c2ccc3c(c2)NC(=O)C2(CCN(C#N)C2)C3)cc1 (stereo not shown) ?
[reply] 1000 to 10000 nM

[ask] Likewise for "N#CN1CC[C@]2(Cc3cc(-c4ccccc4)ccc3NC2=O)C1" ?
[reply] 100 to 1000 nM
